# assay-target: Collagenase 3 (Rattus norvegicus, UniProt P23097)
pIC50: −log10 of the molar value.
observation-type: pIC50

In [3]: df
Out[3]:
                            compound_smiles  result
0  CC(C)C[C@H](C(=O)NO)N(Cc1ccccc1)[P@](C)(=O)c1ccccc1    8.13

###

As a worked illustration, we turn to pIC50 data collected for Stromelysin-1 (Homo sapiens, UniProt P08254).
pIC50: −log10 of the molar value.
observation-type: pIC50

                                    molecule                              assay_target  result
 0  CCP(=O)(c1ccccc1)N(Cc1ccccc1)[C@H](C)C(=O)NO (some centres not stated)  Stromelysin-1 (Homo sapiens, UniProt P08254)    6.15
 1  C[P@@](=O)(c1ccccc1)N(CCc1ccccc1)CC(=O)NO  Stromelysin-1 (Homo sapiens, UniProt P08254)    6.15
 2  CCCCCCN([C@H](C)C(=O)NO)[P@](C)(=O)c1ccccc1  Stromelysin-1 (Homo sapiens, UniProt P08254)    5.80
 3  C[C@H](C(=O)NO)N(Cc1ccccc1)[P@](C)(=O)c1ccccc1  Stromelysin-1 (Homo sapiens, UniProt P08254)    7.17
 4  C[C@H](C(=O)NO)N(Cc1ccccc1)P(=O)(c1ccccc1)c1ccccc1  Stromelysin-1 (Homo sapiens, UniProt P08254)    4.99
 5  CC(C)C[C@H](C(=O)NO)N(Cc1ccccc1)[P@@](C)(=O)c1ccccc1  Stromelysin-1 (Homo sapiens, UniProt P08254)    5.04
 6  CC(C)C[C@H](C(=O)NO)N(Cc1ccccc1)P(C)(C)=O  Stromelysin-1 (Homo sapiens, UniProt P08254)    5.98
 7  CC(C)C[C@@H](N[P@@](C)(=O)c1ccccc1)C(=O)NO  Stromelysin-1 (Homo sapiens, UniProt P08254)    3.88
 8  CC(C)C[C@@H](N[P@](C)(=O)c1ccccc1)C(=O)NO  Stromelysin-1 (Homo sapiens, UniProt P08254)    5.59
 9  CC(C)C[C@H](C(=O)NO)N(Cc1ccccc1)[P@](C)(=O)c1ccccc1  Stromelysin-1 (Homo sapiens, UniProt P08254)    7.61
10  O=C(CN(CCc1ccccc1)P(=O)(c1ccccc1)c1ccccc1)NO  Stromelysin-1 (Homo sapiens, UniProt P08254)    5.76
11  CC[P@@](=O)(c1ccccc1)N(Cc1ccccc1)[C@H](C)C(=O)NO  Stromelysin-1 (Homo sapiens, UniProt P08254)    4.31
